Items are presented alongside their recorded Synergy Score.
Tested on: panel of breast cancer cell lines
method-summary: Compound A with targeted agents and chemotherapies, 72-hour in vitro proliferation assays
Format: cell-based
run-conditions: BT-20 cell line; compound A × partner; 72-hour proliferation

Here is how some compounds turned out for Synergy Score.
CC(C)NC[C@@H](C(=O)N1CCN(c2ncnc3c2[C@H](C)C[C@H]3O)CC1)c1ccc(Cl)cc1 [GDC-0068] | 26.99
N.N.[Cl][Pt][Cl] [Cisplatin] | 2.27
Cc1c(-c2ccc(N3CCc4cccc(C(=O)Nc5nc6ccccc6s5)c4C3)nc2C(=O)O)cnn1CC12CC3CC(CC(C3)C1)C2 [Compound A-1331852] | 162.62

Now consider the entry below.
[in] # get_value(readout='Synergy Score', item= CCOc1cc2ncc(C#N)c(Nc3ccc(OCc4ccccn4)c(Cl)c3)c2cc1NC(=O)/C=C/CN(C)C [Neratinib] )
[out] 58.64

* * *

Test system: panel of breast cancer cell lines
method-summary: Compound A with targeted agents and chemotherapies, 72-hour in vitro proliferation assays
Format: cell-based
run-conditions: ZR-75-30 cells; combination of compound A with the named agent; 72-hour proliferation
result-type: Synergy Score
API doc: respond with a numeric literal and nothing else, no unit.

Here is how some molecules turned out for Synergy Score.
N.N.O=C([O-])C1(C(=O)[O-])CCC1.[Pt+2] | 12.96
C[C@]12CC[C@@H]3c4ccc(O)cc4C[C@@H](CCCCCCCCC[S+]([O-])CCCC(F)(F)C(F)(F)F)[C@H]3[C@@H]1CC[C@@H]2O (some centres unmarked) | 4.50
CO[C@H]1C[C@@H]2CC[C@@H](C)[C@@](O)(O2)C(=O)C(=O)N2CCCC[C@H]2C(=O)O[C@H]([C@H](C)C[C@@H]2CC[C@@H](OCCO)[C@H](OC)C2)CC(=O)[C@H](C)/C=C(\C)[C@@H](O)[C@@H](OC)C(=O)[C@H](C)C[C@H](C)/C=C/C=C/C=C/1C | 7.22

[in] # get_value(readout='Synergy Score', item= N.N.[Cl][Pt][Cl] [Cisplatin] )
[out] 16.44

[in] # get_value(readout='Synergy Score', item= `CC(=O)O[C@@]12CO[C@@H]1C[C@H](O)[C@@]1(C)C(=O)[C@H](O)C3=C(C)[C@@H](OC(=O)[C@H](O)[C@@H](NC(=O)OC(C)(C)C)c4ccccc4)C[C@@](O)([C@@H](OC(=O)c4ccccc4)[C@H]21)C3(C)C` )
[out] 8.08

* * *

System: panel of breast cancer cell lines
method-summary: Compound A with targeted agents and chemotherapies, 72-hour in vitro proliferation assays
Type: cell-based
run-conditions: HCC38; compound A × partner, 72-hour proliferation
Where a name gives a salt, the structure may show the parent alone.
result-type: Best CI
API doc: respond with a numeric literal and nothing else, no unit.

Here is how some compounds turned out for Best CI.
CN(C)C(=O)c1cc2cnc(Nc3ccc(N4CCNCC4)cn3)nc2n1C1CCCC1 [LEE011] | 0.44
N.N.O=C([O-])C1(C(=O)[O-])CCC1.[Pt+2] [Carboplatin] | 0.63
CCOc1cc2ncc(C#N)c(Nc3ccc(OCc4ccccn4)c(Cl)c3)c2cc1NC(=O)/C=C/CN(C)C [Neratinib] | 1.06

[in] # get_value(readout='Best CI', item= Nc1ccn([C@@H]2O[C@H](CO)[C@@H](O)C2(F)F)c(=O)n1 [Gemcitabine Hydrochloride] )
[out] 0.51

[in] # get_value(readout='Best CI', item= CC(=O)O[C@H]1C(=O)[C@@]2(C)[C@H]([C@H](OC(=O)c3ccccc3)[C@]3(O)C[C@H](OC(=O)[C@H](O)[C@@H](NC(=O)c4ccccc4)c4ccccc4)C(C)=C1C3(C)C)[C@]1(OC(C)=O)CO[C@@H]1C[C@@H]2O [Paclitaxel, reference compound] )
[out] 0.21

[in] # get_value(readout='Best CI', item= Cc1c(-c2ccc(N3CCc4cccc(C(=O)Nc5nc6ccccc6s5)c4C3)nc2C(=O)O)cnn1CC12CC3CC(CC(C3)C1)C2 [Compound A-1331852] )
[out] 0.03

[in] # get_value(readout='Best CI', item= CC(=O)c1c(C)c2cnc(Nc3ccc(N4CCNCC4)cn3)nc2n(C2CCCC2)c1=O [PD-0332991] )
[out] 0.19

[in] # get_value(readout='Best CI', item= N.N.[Cl][Pt][Cl] [Cisplatin] )
[out] 0.60

[in] # get_value(readout='Best CI', item= Cn1ncnc1[C@H]1c2n[nH]c(=O)c3cc(F)cc(c23)N[C@@H]1c1ccc(F)cc1 [BMN 673] )
[out] 0.09
